- testedTarget: ADRP (adipose differentiation-related protein) (Mus musculus, UniProt P43883)
- Sequence (P43883 2-425): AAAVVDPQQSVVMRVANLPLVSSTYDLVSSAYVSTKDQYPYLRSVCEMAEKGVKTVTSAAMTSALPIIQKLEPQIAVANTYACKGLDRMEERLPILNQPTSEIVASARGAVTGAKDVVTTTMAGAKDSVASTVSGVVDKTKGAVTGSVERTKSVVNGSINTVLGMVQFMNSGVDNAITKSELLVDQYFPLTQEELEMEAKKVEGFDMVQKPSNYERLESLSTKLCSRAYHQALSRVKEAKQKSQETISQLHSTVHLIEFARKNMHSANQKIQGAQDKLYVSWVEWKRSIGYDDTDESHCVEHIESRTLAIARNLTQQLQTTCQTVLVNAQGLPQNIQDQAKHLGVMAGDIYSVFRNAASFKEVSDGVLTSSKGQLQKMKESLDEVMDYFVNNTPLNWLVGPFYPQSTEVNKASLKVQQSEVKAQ
- assay: fluorescence saturation binding titration, single-site fit
pKd: −log10 of the molar value.
Reported pKd values follow for various molecules
measuredAttribute: pKd

INSERT INTO assay_data (molecule, experimentalresult) VALUES
  ('CCCCCCCCCCCCCCCC(=O)OC[C@H](COP(=O)([O-])OCC[N+](C)(C)C)OC(=O)CCCCCNc1ccc([N+](=O)[O-])c2nonc12 [NBD-phosphatidylcholine]', 7.82),
  ('CCCCCCCCCCCCC/C=C/[C@@H](O)[C@H](COP(=O)([O-])OCC[N+](C)(C)C)NC(=O)CCCCCNc1ccc([N+](=O)[O-])c2nonc12 [NBD-sphingomyelin]', 6.59);
